- experimental target: rat Peripheral-type Benzodiazepine Receptor (PBR), Tspo (gene 24230) (UniProt P16257)
- Sequence (P16257 whole entry, looked up): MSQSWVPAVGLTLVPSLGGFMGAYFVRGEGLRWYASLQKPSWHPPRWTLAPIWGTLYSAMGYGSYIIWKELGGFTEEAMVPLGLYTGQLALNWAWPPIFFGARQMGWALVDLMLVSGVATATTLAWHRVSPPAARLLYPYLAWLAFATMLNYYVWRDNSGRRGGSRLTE
- protocol notes: NVS_MP_rPBR: NovaScreen (NVS) Membrane Protein Assay for rat Peripheral-type Benzodiazepine Receptor (PBR) (AID 2283335)
Records with an inconclusive call do not appear. The source made the active and inactive calls. The calls were made as follows: active = hit-call score of the fitted dose curve at least 0.9, where 1 is the maximum; inconclusive = response in the unintended direction; inactive = score below 0.9.
Bench note: report the call from True for active, False for inactive

Example cases with answers are listed next.
1) CCN(CC)C(=O)c1cccc(C)c1 ... True
2) C=CCOC(Cn1ccnc1)c1ccc(Cl)cc1Cl (stereo unspecified) ... True
3) S=C([S-])NCCNC(=S)[S-].[Mn+2] ... True
4) CCOC(=O)COc1cc(-n2ncc(C(F)(F)F)c(C)c2=O)c(F)cc1Cl ... True
5) S=C(S)NCCNC(=S)S.[Mn+2].[S-]C([S-])=NCCN=C([S-])[S-].[Zn+2] ... False

Shift focus to the following entry.
Input line: Identify the outcome logged in this assay for the molecule shown: CCCCC(CC)COC(=O)c1ccccc1C(=O)O (stereo unspecified)
Output line: False

----------
- Read-out: Interleukin 6 (IL6), IL6 (gene 3569)
- protocol notes: LTEA_HepaRG_IL6: Life Technologies and Expression Analysis (LTEA) Assay for Interleukin 6 (IL6) using HepaRG (AID 2283509)
- condition parameters: mRNA level, 48 h; actives raise or lower the signal
Active and inactive are the calls of the source. The calls were made as follows: active = hit-call score of the fitted dose curve at least 0.9, where 1 is the maximum; inactive = score below 0.9.
Bench note: report the call from active, inactive

Example cases with answers are listed next.
1) CCCN(CCC)C(=O)SCC ... inactive
2) CCCCOC(=O)[C@@H](C)Oc1ccc(Oc2ccc(C(F)(F)F)cn2)cc1 ... inactive

Input line: Identify the outcome logged in this assay for the compound shown: C[C@]12CC[C@@H]3c4ccc(O)cc4C[C@@H](CCCCCCCCCS(=O)CCCC(F)(F)C(F)(F)F)[C@H]3[C@@H]1CC[C@@H]2O (stereo partly specified)
Output line: active

Input line: Identify the outcome logged in this assay for the compound shown: CCCCCCC(C)OC(=O)COc1nc(F)c(Cl)c(N)c1Cl (stereo unspecified)
Output line: inactive

Input line: Identify the outcome logged in this assay for the compound shown: `CC(C)(c1ccc(O)cc1)c1ccc(O)cc1`
Output line: inactive

Input line: Identify the outcome logged in this assay for the compound shown: `COCCO`
Output line: inactive

Input line: Identify the outcome logged in this assay for the compound shown: `CCCCOCCOCCOCc1cc2c(cc1CCC)OCO2`
Output line: inactive

Input line: Identify the outcome logged in this assay for the compound shown: `CC(=O)S[C@@H]1CC2=CC(=O)CC[C@]2(C)[C@H]2CC[C@@]3(C)[C@@H](CC[C@@]34CCC(=O)O4)[C@H]12`
Output line: inactive

----------
- experimental target: Cytochrome P450 2C19 (Homo sapiens) (UniProt P33261)
- protocol notes: NVS_ADME_hCYP2C19: NovaScreen (NVS) CYP450-related Enzyme Activity (ADME) Assay for human CYP2C19 (AID 2283113)
Records with an inconclusive call do not appear. Activity calls are given as the source filed them. How the source made its calls: active means hit-call score of the fitted dose curve at least 0.9, where 1 is the maximum; inconclusive means response in the unintended direction; inactive means score below 0.9.
Bench note: report the call from True (active), False (inactive)

Example cases with answers are listed next.
1) CC1(C)C(C=C(Cl)Cl)C1C(=O)OCc1cccc(Oc2ccccc2)c1 (centres undefined) ... False
2) CCCCC(CC)COC(=O)c1ccccc1C(=O)O (centres undefined) ... True
3) CCCCCCC(C)OC(=O)COc1nc(F)c(Cl)c(N)c1Cl (centres undefined) ... True

Input line: Identify the outcome logged in this assay for the compound shown: `CSC(=O)c1cccc2nnsc12`
Output line: True

Source listed as PubChem BioAssay (EPA / NIEHS).
